GI50 for assorted compounds
- Tested on: HOP-92
- assay.explanation: NCI tumour cell line growth inhibition, 48 h
Calls of active or inactive are those of the source. Cut-off read from the data, not from the text of the source: active = GI50 up to about 1.1 µM and inactive = higher.

CNC(=S)NNc1ncnc2c1c(-c1ccc(Cl)cc1)cn2-c1ccc(C)cc1
15.5 µM (inactive)

Inquiry: Dear colleague, I am looking for the recorded GI50 of the following compound: O=c1[nH]cnc2c1ncn2C1SC(CO)C(O)C1O (centres undefined)
Reply text: > 100 µM (inactive)

Inquiry: Dear colleague, I am looking for the recorded GI50 of the following compound: CO[C@]12CC(=O)C3(C(C[C@H]4CC5CC[C@H]6C[C@@H](OC(C)=O)CC[C@]6(OC(C)=O)C5C[C@@]43C)C1)C1C[C@H]3[C@@H]4CC[C@H]5C[C@@H](OC(C)=O)CC[C@]5(OC(C)=O)[C@H]4CC[C@]3(C)C12 (some centres undefined)
Reply text: > 100 µM (inactive)

Inquiry: Dear colleague, I am looking for the recorded GI50 of the following compound: COc1cc(C=C(c2ccc(N(C)C)cc2)c2ccc(N(C)C)cc2)c2ccccc2c1OC
Reply text: > 100 µM (inactive)

---

- System: Malme-3M
- assay.explanation: NCI tumour cell line growth inhibition, 48 h
The source made the active and inactive calls. No stated cut-off is given here; in the data, active = GI50 up to about 1.1 µM and inactive = higher.
GI50 for assorted compounds

As a guide, the following entries are already answered.
COC(=O)[C@@]12OC[C@]34C([C@@H](O)C1O)[C@@]1(C)CC(=O)C(OC(=O)/C=C(/c5ccccc5)C(F)(F)F)=C(C)C1C[C@H]3OC(=O)[C@H](O)[C@H]42 (some centres not stated)
7.91 µM (inactive)
COc1ccc(/C(C)=C2\CCCN(Cc3ccccc3)C2)cc1
19.2 µM (inactive)
COC(=O)[C@]1(C)CCC[C@]2(C)[C@H]3CC[C@]4(C(C)C)OO[C@@H](O4)[C@]34O[C@@H]4C[C@H]21
6.68 µM (inactive)
COc1cc2c(c(OC)c1OC)C(=O)[C@H](O)[C@H]2NC(N)=O
> 100 µM (inactive)
Cc1ccc(C(=O)/C=C2\Nc3ccccc3SC2=O)c(C)c1
84.3 µM (inactive)

Inquiry: API: value(readout=GI50, system=Malme-3M) for record COc1ccccc1C(O)[C@@H]1C[C@@H]2[C@H]3CC[C@@](C)([C@@H]2O1)C3(C)C (some centres not stated)
Reply text: 15 µM (inactive)

Inquiry: API: value(readout=GI50, system=Malme-3M) for record CCCc1nc(NC#N)nc(C(=O)Nc2ccccc2)c1CC
Reply text: > 100 µM (inactive)

---

- Test system: SK-OV-3
- assay.explanation: NCI tumour cell line growth inhibition, 48 h
Calls of active or inactive are those of the source. Rule as the data show it: active = GI50 up to about 1.1 µM and inactive = higher.
experimental.endpoint: GI50

CCCCOC(=O)NC(=O)c1cn(CCCOC(=O)NCCCCCCNC(=O)OCCCn2cc(C(=O)NC(=O)OCCCC)c(=O)[nH]c2=O)c(=O)[nH]c1=O
> 100 µM (inactive)
Cc1c(Cl)cccc1NC(=O)/C=C/c1ccccc1
> 100 µM (inactive)

Inquiry: API: value(readout=GI50, system=SK-OV-3) for record Cc1ccc2c(c1)C(=O)C1(Cc3ccccc3C1=O)C2 (stereo not drawn)
Reply text: 31.2 µM (inactive)

---

GI50 for assorted molecules
- Test system: SK-OV-3
- assay.explanation: NCI tumour cell line growth inhibition, 48 h
The source made the active and inactive calls. Rule as the data show it: active = GI50 up to about 1.1 µM and inactive = higher.

Cc1nc2c(Br)cc(Br)cc2c(=O)n1-c1ccccc1NC1OC(CO)C(O)C(O)C1O (stereo not drawn)
> 100 µM (inactive)

Attention now shifts to the item below.
Inquiry: API: value(readout=GI50, system=SK-OV-3) for record Cc1ccc(N(C=O)c2c([N+](=O)[O-])cc([N+](=O)[O-])c3c2=[N+]([O-])CN=3)cc1
Reply text: > 100 µM (inactive)
